Test system: UMC-11
runDescription: relative viability (nuclei count vs DMSO), 5 days (fraction); higher = more cells survive
conditionSet: first compound 0.06325 µM
Classify: TRUE when relative viability is strictly less than 0.3; FALSE when relative viability is not.

A selection of reference data follows.
compound | group
CCNC(=O)c1noc(-c2cc(C(C)C)c(O)cc2O)c1-c1ccc(CN2CCOCC2)cc1 [Luminespib] + COc1cc2c(Oc3ccc(NC(=O)C4(C(=O)Nc5ccc(F)cc5)CC4)cc3F)ccnc2cc1OCCCN1CCOCC1 [Foretinib] (partner 0.25 µM) | FALSE
CCNC(=O)c1noc(-c2cc(C(C)C)c(O)cc2O)c1-c1ccc(CN2CCOCC2)cc1 [Luminespib] + Nc1nc2[nH]cc(CCc3ccc(C(=O)N[C@@H](CCC(=O)O)C(=O)O)cc3)c2c(=O)[nH]1 [Pemetrexed] (partner 0.2 µM) | FALSE
CCNC(=O)c1noc(-c2cc(C(C)C)c(O)cc2O)c1-c1ccc(CN2CCOCC2)cc1 [Luminespib] + Nc1ncn([C@H]2C[C@H](O)[C@@H](CO)O2)c(=O)n1 [Decitabine] (partner 2 µM) | FALSE

Prompt: Please let me know if CCNC(=O)c1noc(-c2cc(C(C)C)c(O)cc2O)c1-c1ccc(CN2CCOCC2)cc1 [Luminespib] + CC(C)C[C@H](NC(=O)[C@H](Cc1ccccc1)NC(=O)c1cnccn1)B(O)O [Bortezomib] (partner 0.002 µM) shows relative viability below 0.3.
Response: TRUE

Prompt: API: query returns whether the compound falls strictly under 0.3 in relative viability. Query: CCNC(=O)c1noc(-c2cc(C(C)C)c(O)cc2O)c1-c1ccc(CN2CCOCC2)cc1 [Luminespib] + CC1(C)CCC(c2ccc(Cl)cc2)=C(CN2CCN(c3ccc(C(=O)NS(=O)(=O)c4ccc(N[C@H](CCN5CCOCC5)CSc5ccccc5)c(S(=O)(=O)C(F)(F)F)c4)cc3)CC2)C1 [Navitoclax] (partner 0.5 µM)
Response: TRUE

Prompt: A record lists CCNC(=O)c1noc(-c2cc(C(C)C)c(O)cc2O)c1-c1ccc(CN2CCOCC2)cc1 [Luminespib] + N=C(N)NC(=N)NCCc1ccccc1 [Phenformin] (partner 250 µM) . Is its relative viability below 0.3?
Response: TRUE

Prompt: Is 0.3 strictly greater than the compound's reported relative viability? compound: CCNC(=O)c1noc(-c2cc(C(C)C)c(O)cc2O)c1-c1ccc(CN2CCOCC2)cc1 [Luminespib] + CC(=O)c1c(C)c2cnc(Nc3ccc(N4CCNCC4)cn3)nc2n(C2CCCC2)c1=O [Palbociclib] (partner 0.5 µM)
Response: TRUE
